# assay.target: CaMKIIα (Rattus norvegicus)
# Construct: made in house; host or cells: baculovirus/Sf9 (CaMKII); bacteria (CaM)
# procedure.text: CaMKII activity assay, phosphorylation of syntide 2
# Format: biochemical
# run.parameters: class estimated from syntide 2 phosphorylation at 0.3 and 0.1 µM peptide; Ala scan peptides not N-acetylated / C-amidated; read-out: IC50 [μM] (Ala scan of CN19, Fig. 2)
Ends that are not written are not given here.
measured.endpoint: IC50

1. KRPAKLGQIGRSKRVVIED [P4A]	> 0.3 µM
2. KRPPKLGQIGRSKRVVAED [I17A]	< 0.3 µM
3. KRPPKLGQIGRSKRAVIED [V15A]	< 0.3 µM
4. KAPPKLGQIGRSKRVVIED [R2A]	< 0.3 µM
5. KRPPKLGQIGRSKRVVIEA [D19A]	< 0.3 µM
6. KRPPKLAQIGRSKRVVIED [G7A]	< 0.3 µM
7. KRPPALGQIGRSKRVVIED [K5A]	< 0.3 µM
8. ARPPKLGQIGRSKRVVIED [K1A]	< 0.3 µM
9. H-KRPPKLGAIGRSKRVVIED-OH [Q8A]	~0.1 µM
10. KRPPKAGQIGRSKRVVIED [L6A]	> 0.3 µM
11. KRPPKLGQIARSKRVVIED [G10A]	> 0.3 µM
12. KRPPKLGQIGASKRVVIED [R11A]	> 0.3 µM
13. KRPPKLGQIGRAKRVVIED [S12A]	> 0.3 µM
14. KRAPKLGQIGRSKRVVIED [P3A]	< 0.1 µM
